Test: beta-lactam sensitization of Mtb H37Rv, H37Rv (AID 434955);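 further: growth measured after seven days incubation then overnight dye step; 0% = bacteria only wells and 100% = bacteria with antibiotic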
Details: M. tuberculosis H37Rv growth with meropenem, percent inhibition; measured here: primary screen without meropenem; at 25 µM
Screen size: about 330,000 compounds; about 880 (0.27%) were called active. Roughly 1% stayed inconclusive and do not appear here. A selection follows.
ASSAY_ENDPOINT: inhibition (%)
Report the value in % with no unit label.

// inhibition lookup, key: CCOc1ccc(NC(=S)NC(=O)/C=C/c2ccc(OC)cc2)c([N+](=O)[O-])c1
1.54

And Cc1nc(COc2cccc(Cl)c2)sc1C(=O)/C=C/N(C)C ?
-0.85

And CC(=O)OCCC(C)C ?
-1

And CC1CCN(S(=O)(=O)c2ccc(NC(=O)C3CC(=O)N(c4ccccc4)C3)cc2)CC1 (stereo not given) ?
6.16

And COC(=O)c1ccc(NS(=O)(=O)c2cc3c4c(c2)C(C)C(=O)N4CCC3)cc1 (stereo not given) ?
-4.77

And CC(=O)Nc1ccc(NC(=O)CSc2nnnn2-c2ccccc2F)cc1 ?
-2.67

And O=C(NCc1ccc2c(c1)OCO2)c1cc([N+](=O)[O-])ccc1N1CCOCC1 ?
-2.18

And COc1ccc(-c2ccc(OC(=O)NC3CCS(=O)(=O)C3)cc2)cc1 (stereo not given) ?
66.5

And O=C(Nc1ccccc1Cl)/C(Cl)=C(\Cl)S(=O)c1ccccc1 (stereo not given) ?
100

And O=C(CC1SC(=Nc2ccccc2F)N(CCN2CCOCC2)C1=O)Nc1ccc(F)cc1F (stereo not given) ?
2.75

---

Test: beta-lactam sensitization of Mtb H37Rv, H37Rv (AID 434955)
Settings: M. tuberculosis H37Rv growth with meropenem, percent inhibition; at 25 µM; stronger effect = higher value
The campaign covered roughly 330,000 compounds. About 880 (0.27%) were called active. Another 1% or so got no clear call; they are omitted. Only a sample is shown.
Could you please report measured inhibition for the items listed next?
Report the value in % with no unit label.

// inhibition lookup, key: O=C(NCc1ccc(F)cc1)C1CCN(C(=O)Nc2ccc(F)cc2)CC1
-23.9

And COCc1cc(C)nc2sc3c(=O)n(-c4cccc5ccccc45)nnc3c12 ?
41.4

And C[C@@H]1C[C@@H]2O[C@H]2/C=C\C=C\C(=O)Cc2c(Cl)c(O)cc(O)c2C(=O)O1 ?
29.7

And O=C(c1ccc(F)cc1)n1c(=S)nc2ccccn21 ?
-3.39

And COc1ccc(C2C(C(C)=O)=C(O)C(=O)N2c2nccs2)cc1 (configuration not stated) ?
-8

And CCOc1cc(NC(=O)CCl)c(OCC)cc1NC(C)=O ?
90.5

And O=C1CC2(CC(c3ccc(Cl)cc3)=NO2)C(=O)N1c1ccccc1 (configuration not stated) ?
-4.42

And COc1cc(C2C(C(=O)OCCC#N)=C(C)NC3=C2S(=O)(=O)c2ccccc23)cc(OC)c1OC (configuration not stated) ?
4.16

And Cc1ccc(N2CC(C(=O)Nc3cc(Cl)ccc3-n3cncn3)CC2=O)cc1 (configuration not stated) ?
-7.41

And COc1ccccc1N(C(=O)Cn1nnc2ccccc21)C(C(=O)NCc1ccco1)c1ccc(C)o1 (configuration not stated) ?
-4.29

And COC(=O)Cc1ccc(NC(=S)NCc2ccco2)cc1 ?
-6.59

And O=c1c2ccccc2ncn1CCCCOc1ccccc1F ?
-1.85

And CSc1ccc(CN2C(=O)NC3(CCCCCC3)C2=O)cc1 ?
19.2

And COc1ccccc1CN1CC(C(=O)NCCc2cn[nH]c2)CCC1=O (configuration not stated) ?
-1.38

And CCOC(=O)c1cn[nH]c1NC(=S)Nc1ccccc1 ?
-8.22

And O=S(=O)(Nc1ccc(Cl)cn1)c1cnc(Cl)c(Br)c1 ?
-1.47

And CC(=O)Nc1ccc(NC(=O)CSc2nnnn2-c2ccccc2F)cc1 ?
-2.11

And COc1ccccc1-c1oc2ccccc2c1C#CCCCCO ?
10.7

And CC(C)N1CCC(NC(=O)Nc2ccccc2)CC1 ?
-9.18

And Cc1oc2c(F)c(F)c(F)c(F)c2c1S(=O)(=O)Nc1cccc(C(F)(F)F)c1 ?
5.72

And COc1ccccc1NC(=O)COC(=O)CNC(=O)C1CCCCC1 ?
-1.14

And Cc1cccc([C@@H]2[C@@H]3C(=O)N(C)C(=O)[C@@H]3[C@@H]3C(=O)Nc4ccccc4C(=O)N23)c1 ?
-6.47

---

Assay: beta-lactam sensitization of Mtb H37Rv, H37Rv (AID 434955)
Conditions: M. tuberculosis H37Rv growth with meropenem, percent inhibition; at 25 µM; stronger effect = higher value
Out of some 330,000 compounds screened, about 880 (0.27%) were called active. Another 1% or so got no clear call; they are omitted. These entries were drawn from the full list.
Could you please report measured inhibition for the items listed next?
Report the value in % with no unit label.

// inhibition lookup, key: O=C1CC(=O)Nc2cc(S(=O)(=O)N3CCN(c4cccc(C(F)(F)F)c4)CC3)ccc2N1
-1.42

And Cc1ccc(NS(=O)(=O)c2ccc(-c3coc(C)n3)cc2)c(C)c1 ?
-2.05

And CC(Sc1nnc2c(n1)C1CCC2(C)C1(C)C)C(=O)Nc1ccccc1 (stereo unspecified) ?
-4.99

And CO/N=C(/CS(=O)(=O)c1ccc(Br)cc1)c1ccc(OC)cc1 ?
-4.01

And CCC1CO/C(=C(\C(=C(Cl)Cl)N2CCOCC2)[N+](=O)[O-])N1 (stereo unspecified) ?
-17.5

And COCCOC(=O)C1=C(C)NC(=O)NC1c1cc2c(cc1Br)OCO2 (stereo unspecified) ?
-3.19

---

Assay: beta-lactam sensitization of Mtb H37Rv, H37Rv (AID 434955);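 further: growth measured after seven days incubation then overnight dye step; 0% = bacteria only wells and 100% = bacteria with antibiotic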
Conditions: M. tuberculosis H37Rv growth with meropenem, percent inhibition; at 25 µM; stronger effect = higher value
In all, about 330,000 compounds went through this assay and about 880 (0.27%) were called active. About 1% were inconclusive and are not listed. A selection follows.
Could you please report measured inhibition for the items listed next?
Report the value in % with no unit label.

// inhibition lookup, key: Cc1csc(Nc2ccc(Cl)cc2)[n+]1-c1ccc(Cl)cc1
5.09

And O=C(Nc1ccc(F)cc1F)N1CCCN(CCOc2ccccc2)CC1 ?
-1.99

And CCOC(=O)c1c(S(=O)(=O)Nc2ccc(CN3CCC(C)CC3)cc2)c(C)n(C)c1C ?
-2.23

And O=C(c1cc(-c2ccc(Cl)cc2)on1)N1CCN(c2ccccc2)CC1 ?
4.32

And CCCCC1(C(=O)OCC)NC(c2ccc(O)cc2)C2C(=O)N(c3ccccc3)C(=O)C21 (stereo unspecified) ?
-5.62

And CCc1ccc2[nH]c(=O)c(Cc3ccccc3)c(O)c2c1 ?
-0.83

---

Assay: beta-lactam sensitization of Mtb H37Rv, H37Rv (AID 434955);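 further: growth measured after seven days incubation then overnight dye step; 0% = bacteria only wells and 100% = bacteria with antibiotic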
Conditions: M. tuberculosis H37Rv growth with meropenem, percent inhibition; measured here: primary screen without meropenem; at 25 µM
Hit rate of the full screen: of about 330,000 compounds, about 880 (0.27%) were called active. Roughly 1% stayed inconclusive and do not appear here. Only a sample is shown.
Could you please report measured inhibition for the items listed next?
Quick note: number first, unit second.

// inhibition lookup, key: C/C(=N/O)c1ccc(N2C(=O)C3C4C=CC(C3C2=O)C2C3C(=O)N(c5ccc(/C(C)=N/O)cc5)C(=O)C3C42)cc1 (stereo not given)
-7.58%

And CC1=CC(=O)C=CC1(C)C(Cl)(Cl)Cl (stereo not given) ?
1.78%

And Cc1ccc(N2CC(C(=O)Nc3cc(Cl)ccc3-n3cncn3)CC2=O)cc1 (stereo not given) ?
3.62%

And COc1cc(C2C(C(=O)OCCC#N)=C(C)NC3=C2S(=O)(=O)c2ccccc23)cc(OC)c1OC (stereo not given) ?
1.07%

And O=C(NCC1CCCO1)C(C(=O)c1ccccc1)n1cc(Cl)ccc1=O (stereo not given) ?
-1.73%

And COC(=O)C(C)N=Cc1ccccc1 (stereo not given) ?
0.46%

And CCn1c(CNC(=O)c2ccco2)nnc1SCC(=O)Nc1cccc(F)c1 ?
-1.57%

And COCCCNC(=O)Cc1ccc(-n2c(C)nc3cccnc32)cc1 ?
-1.03%

And O=S(=O)(c1ccc(F)cc1)N1CCN=C1SCc1cccc(F)c1 ?
11.2%

And C/C(Cc1ccccc1)=N\NC(=O)CNC(=O)c1ccccc1Cl ?
2.92%

---

Experiment: beta-lactam sensitization of Mtb H37Rv, H37Rv (AID 434955);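 further: growth measured after seven days incubation then overnight dye step; 0% = bacteria only wells and 100% = bacteria with antibiotic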
Conditions: M. tuberculosis H37Rv growth with meropenem, percent inhibition; at 25 µM; stronger effect = higher value
Out of some 330,000 compounds screened, about 880 (0.27%) were called active. Another 1% or so got no clear call; they are omitted. These entries were drawn from the full list.
ASSAY_ENDPOINT: inhibition (%)
Report the value in % with no unit label.

// inhibition lookup, key: CC(=O)Nc1ccc(N2C(=O)CC(Sc3nccc(C)n3)C2=O)cc1 (stereo not drawn)
-4.91

And O=C(NCc1ccc2c(c1)OCO2)c1cc([N+](=O)[O-])ccc1N1CCOCC1 ?
-1.78

And CCOc1ccc(NC(=S)NC(=O)/C=C/c2ccc(OC)cc2)c([N+](=O)[O-])c1 ?
-1.27

And Cc1n[nH]c(=O)c2c(NC(=O)CSc3cc(Cl)ccc3Cl)oc(C)c12 ?
-5.41

And Nn1c(SCC(=O)Nc2ccc3c(c2)CCC3)nnc1C1CC1 ?
-4.28

And CC(C)CCN1CCN(Cc2cn[nH]c2C2CCCCC2)CC1CCO (stereo not drawn) ?
-6.26

And CCOC(=O)c1ccc(NC(=O)c2ccc(NC(=O)C3CCCO3)cc2)cc1 (stereo not drawn) ?
79.3

And O=C1[C@@H]2C(c3cccnc3)=NO[C@@H]2C(=O)N1c1ccc(Cl)cc1Cl ?
-5.66

And CC(C)NS(=O)(=O)c1ccc(CCC(=O)N2CCOCC2)cc1 ?
-4.86

And O=C(NCCc1ccccc1)C1CCC(Cn2c(=O)c3ccccc3n(Cc3cccnc3)c2=O)CC1 (stereo not drawn) ?
19.4

And COC(=O)c1ccc(NS(=O)(=O)c2cc3c4c(c2)C(C)C(=O)N4CCC3)cc1 (stereo not drawn) ?
-8.75

And CC(C)c1ccc(NC(=O)CCN2C(=O)c3ccc([N+](=O)[O-])cc3C2=O)cc1 ?
-2.88

And CCCCNC(=O)Cn1nc(C)c(S(=O)(=O)N2CCOCC2)c1C ?
-4.34

And CCCCNCc1ccc(SC)cc1 ?
-3.24

And COCCCNC(=O)Cc1ccc(-n2c(C)nc3cccnc32)cc1 ?
-2.02

And Cc1ccc(C(=O)N2CCN(S(=O)(=O)N3CCOCC3)CC2)cc1 ?
-7.62

And COc1ccc(-c2cc(=O)oc3cc(OC(C)C(=O)Nc4ccc(CN5CCOCC5)cc4)ccc23)cc1 (stereo not drawn) ?
98.4

And C/C(=N/O)c1ccc(N2C(=O)C3C4C=CC(C3C2=O)C2C3C(=O)N(c5ccc(/C(C)=N/O)cc5)C(=O)C3C42)cc1 (stereo not drawn) ?
-4.77

And Cc1nc(COc2cccc(Cl)c2)sc1C(=O)/C=C/N(C)C ?
-4.65

And CC1Sc2ccc(C(=O)NCc3ccccc3Cl)cc2NC1=O (stereo not drawn) ?
6.05

And C=C(C)c1cccc(C(C)(C)NC(=O)N2CCN(c3ncccn3)CC2)c1 ?
-9.15

And O=C(CSC1CC(=O)N(CCc2ccccc2)C1=O)Nc1ccc(Cl)cc1 (stereo not drawn) ?
-1.52

And CCSC1=NCCN1C(=O)c1ccc(S(=O)(=O)N(CC)CC)cc1 ?
6.44

And COc1cc(NC(=S)N2CCCC(C)C2)cc(OC)c1OC (stereo not drawn) ?
0.37

And Cc1ccc(N2C(=O)CC(NCc3ccc4c(c3)OCO4)C2=O)cc1Cl (stereo not drawn) ?
-7.15

And O=C(CCc1nc(-c2ccccc2)no1)Nc1cccc(C(=O)NC2CC2)c1 ?
1.26

And CC(C)C(=O)Nc1nnc(SCC(=O)N2C(C)CCCC2C)s1 (stereo not drawn) ?
0.21

And CCc1ccc(-c2cc3c(=O)n(CC(=O)NCCCN4CCN(Cc5ccccc5)CC4)nc(C)n3n2)cc1 ?
99.7

And Cc1ccc(-n2cc(CN(C)Cc3nccn3C)c(-c3cccc(C)c3)n2)cc1 ?
98.9

And O=[N+]([O-])c1c(NCCO)cc(Sc2nc3ccccc3s2)c2nonc12 ?
95.6

And Cn1nnnc1-c1cc(Cl)cc(Cl)c1 ?
-6.9

And CCC(C)N(C(=O)COC(=O)c1nc(Cl)ccc1Cl)C1CCS(=O)(=O)C1 (stereo not drawn) ?
-10.3

And O=C(Nc1ccccc1Cl)/C(Cl)=C(\Cl)S(=O)c1ccccc1 (stereo not drawn) ?
100

And COc1ccc(NC(=O)COc2ccc(C(=O)c3ccc(F)cc3)cc2)cc1S(N)(=O)=O ?
7.84

And COCCNC(=O)C(c1ccc(O)cc1)N(C(=O)CCC(=O)Nc1nccs1)c1ccc(C)cc1 (stereo not drawn) ?
-3.29

And CC(C)OC(=O)CN1CCN(c2ccc(Cl)cc2)CC1 ?
-3.97

And CC1CCN(S(=O)(=O)c2ccc(NC(=O)C3CC(=O)N(c4ccccc4)C3)cc2)CC1 (stereo not drawn) ?
1.58

And N#Cc1ccc(COC(=O)Cn2nnc(-c3ccccc3)n2)cc1 ?
2.69

And O=C1CC2(CCCC2)Oc2ccc(Cl)cc21 ?
-2.7

And COc1ccc(OC)c(NC(=O)c2cccc(S(=O)(=O)N3CCN(C(C)=O)CC3)c2)c1 ?
1.25

And O=C(NCC(=O)N1CCN(c2ccccc2O)CC1)c1ccc2ccccc2c1 ?
10.4

And O=C(C1CCCN1S(=O)(=O)c1ccc(Br)cc1)N1CCOCC1 (stereo not drawn) ?
-1.22

And COC(=O)CC(=O)N1CCN(c2ccc(Cl)c(Cl)c2)CC1 ?
-8.83
